Here the recorded kon is given for each entry.
- measured_on: T1, human CD33 antigen (human, UniProt P20138 18-259, limits assumed)
- T1 construct: whole entry named; also called Siglec-3
- protocol: SPR (Biacore T200), 37 C, scFv-Fc, 0 uM MTX
All answers are understood in M⁻¹ s⁻¹, so give the number only.

Use the examples below as a reference point.
## Task Report kon, nothing else, for this binder: P04_C09 scFv-Fc fusion (scFv, V domains shown, Tested as scFv-Fc fusion) VH: QVQLVESGGGLVQAGGSLRLSCAASRRSSRSWAMHWVRQAPGKGLEWVAVISYDGRLKYYADSVKGRFTISRDNAEYLVYLQMNSLRAEDTAVYYCAAEANESDSGGIDVWGQGTLVTVSS VL: DIQMTQSPSSLSASVGDRVTITCRASQTIGGYLNWYQQKPGKAPKLLIYAASSLQSGVPSRFSGSGSGTDFTLTISSLQPEDFATYYCQQGYSSGAFGQGTKVEIK
## Result 160000

## Task Report kon, nothing else, for this binder: P08_C08 scFv-Fc fusion (scFv, V domains shown, Tested as scFv-Fc fusion) VH: QVQLVESGGGLVQAGGSLRLSCAASRRSSRSWAMHWVRQAPGKGLEWVAVISYDGRLKYYADSVKGRFTISRDNAEYLVYLQMNSLRAEDTAVYYCAAEGSGSTDGSGAIDVWGQGTLVTVSS VL: DIQMTQSPSSLSASVGDRVTITCRASQSIGSYLNWYQQKPGKAPKLLIYAASSLQSGVPSRFSGSGSGTDFTLTISSLQPEDFATYYCQQSYSSGSFGQGTKVEIK
## Result 63000

Now take the following binder into account.
## Task Report kon, nothing else, for this binder: P02_H01 scFv-Fc fusion (scFv, V domains shown, Tested as scFv-Fc fusion) VH: QVQLVESGGGLVQAGGSLRLSCAASRRSSRSWAMHWVRQAPGKGLEWVAVISYDGRLKYYADSVKGRFTISRDNAEYLVYLQMNSLRAEDTAVYYCAAGSGGGDGLDVWGQGTLVTVSS VL: DIQMTQSPSSLSASVGDRVTITCRASQTISSYLNWYQQKPGKAPKLLIYSSSTLQGGVPSRFSGSGSGTDFTLTISSLQPEDFATYYCQQSYSSGTFGQGTKVEIK
## Result 28000
